system: BT-549 breast; assay: NCI-60 one-dose screen, 48 h; settings: 10 µM
The panel holds about 83,000 compounds, 20% with a hit somewhere; the sample as a whole holds those more often. Active and inactive are the calls of the source. Rule for the calls: active = growth percent below 10; inactive = the rest.
Possible outcomes: 1 (yes) for active, 0 (no) for inactive

MOLECULE | DISCRETE LABEL
COC(=O)[C@]12CC[C@@H](C)[C@H](C)[C@@H]1C1=CC[C@@H]3[C@@]4(C)CC(=O)[C@H](O)[C@@](C)(CO)[C@@H]4C(=O)C[C@@]3(C)[C@]1(C)CC2 | 1 (yes)
NC1CCC(Nc2nc(NCc3ccc(-c4ccco4)nc3)c3ncn(C4CCCC4)c3n2)CC1 (configuration not stated) | 1 (yes)
CCN1CCOC1C(C)C (configuration not stated) | 0 (no)
O=C(Nc1cccc(F)c1)Nc1cccc(Cl)c1 | 0 (no)
c1ccc(CC(NCCNC(Cc2ccccc2)c2ccccc2)c2ccccc2)cc1 (configuration not stated) | 0 (no)
COc1cc(OC)cc(-c2n/c(=C\c3c(O)[nH]c4ccc(OC)cc34)cc3c2=Nc2ccccc2-3)c1 | 0 (no)
O=c1oc2c3ccc4cnccc4c3[nH]c2c2ccccc12 | 0 (no)
CCCCCCCCCCCCCC[n+]1ccccc1 | 1 (yes)
Fc1cc(-c2ncc(-c3cc(F)c(F)c(F)c3)c(NC3CCCCCC3)n2)cc(F)c1F | 0 (no)
COc1cccc(C(=O)N(c2ccc(F)c(F)c2)C(C(=O)NC(C)(C)C)c2cc3c(C)cc(C)cc3nc2Cl)c1 (configuration not stated) | 0 (no)
COc1ccc(-c2nnc(COc3ccc(NC(=O)Nc4cccc(C(F)(F)F)c4)cc3F)o2)cc1 | 0 (no)
COc1cccc(C2(C)Nc3ccccc3-c3nc4ccccc4n32)c1 (configuration not stated) | 0 (no)
N#Cc1c(-c2ccccc2)nc(SCC(=O)N2CCOCC2)[nH]c1=O | 0 (no)
COc1ccc2nc(-c3ccccc3)cc(C(C)=O)c2c1 | 0 (no)
COc1ccc(/C(CS(=O)(=O)c2ccccc2)=N\O)cc1 | 0 (no)
CCOC(=O)/C(C#N)=C(/C)C1CC1 | 0 (no)
C=CCNC(=S)NN | 0 (no)
N#Cc1c2c([nH]c(=O)c1C(N)=O)CCCCC2 | 0 (no)
CC(C)C(C)C(N)C(=O)O (configuration not stated) | 0 (no)
COc1ccc(-c2cc(/C=C3\C(=O)Nc4cc(Cl)ccc43)[nH]n2)cc1 | 0 (no)
COC(=O)c1c(C)nc(Nc2nc3ccccc3s2)nc1-c1ccc(Cl)cc1Cl | 0 (no)
CCOC(=O)Cn1nnc(-c2ccc(OCc3ccccc3F)cc2)n1 | 0 (no)

* * *

tested on: COLO 205 colon; experiment: NCI-60 one-dose screen, 48 h (100 = growth as untreated, 0 = no growth, -100 = all killed); settings: 10 µM
Compounds without any hit were thinned out: in the full panel of roughly 83,000, 20% have a hit.
// values below are reported growth
READOUT NAME: growth (%)

MOLECULE | READOUT NAME | RECORDED NUMBER
COc1cc(-c2cc(-c3cc(OC)c(OC)c(OC)c3)nc3nc(N)[nH]c(=O)c23)ccc1Oc1ccnc2cc(Cl)ccc12 | growth | 105
CN1CCN(c2nc(-c3cccnc3)nc3sc4c(c23)CCCCCC4)CC1 | growth | 102
COc1ccc(Cn2cc3c(c2-c2cc(OC)c(OC)c(OC)c2)CCc2cnoc2-3)cc1[N+](=O)[O-] | growth | 1.15
COc1cccc2c1C(=O)c1c(O)c3c(c(O)c1C2=O)C[C@@](O)(C(=O)COC(=O)c1ccccc1)C[C@@H]3OC1CC(N)C(O)C(C)O1 (stereo not given in full) | growth | -90.9
CC(=O)c1ccc(NCn2nc(-c3ccc(Cl)cc3)oc2=S)cc1 | growth | 107
O=S(=O)(NC1c2ccccc2Oc2ccccc21)c1ccccc1 | growth | 95.6
CCOC(=O)C(CCC1=NC(C)(C)CC(C)O1)C(=O)OCC (stereo not given) | growth | 92
CCCCCCCCCCCCCC[n+]1ccccc1 | growth | -93
CCCCCc1cc[n+](CC(=O)c2ccc(Cl)cc2)cc1 | growth | 80.5
C[n+]1c(/C=C/c2c[nH]c3ccccc23)ccc2ccccc21 | growth | 45.8

# credit: PubChem BioAssay (NCI)
